Please go through the items and note down their Ratio (-BP/+BP), DF-10000.
- measuredTarget: T1, interleukin 18 binding protein (IL-18BP) (UniProt O95998 31-194)
- T1 sequence (looked up): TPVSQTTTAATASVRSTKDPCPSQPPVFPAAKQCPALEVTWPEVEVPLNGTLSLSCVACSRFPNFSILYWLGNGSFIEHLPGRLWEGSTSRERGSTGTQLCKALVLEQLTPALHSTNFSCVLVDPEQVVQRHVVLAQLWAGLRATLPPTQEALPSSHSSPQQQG
- assayExplanation: cell-based or functional assay
I only need the number, thanks.

Prompt: Recorded Ratio (-BP/+BP), DF-10000 of IL-18 variant K53D, S55E (ligand) YFGKLESKLSVIRNLNDQVLFIDQGNRPLFEDMTDSDMRDNAPRTIFIISMYDDEQPRGMAVTISVKSEKISTLSSENKIISFKEMNPPDNIKDTKSDIIFFQRSVPGHDNKMQFESSSYEGYFLASEKERDLFKLILKKEDELGDRSIMFTVQNED , please.
Completion: 1.22

Prompt: Recorded Ratio (-BP/+BP), DF-10000 of IL-18 variant K53H, S55M, Q56H (ligand) YFGKLESKLSVIRNLNDQVLFIDQGNRPLFEDMTDSDMRDNAPRTIFIISMYHDMHPRGMAVTISVKSEKISTLSSENKIISFKEMNPPDNIKDTKSDIIFFQRSVPGHDNKMQFESSSYEGYFLASEKERDLFKLILKKEDELGDRSIMFTVQNED , please.
Completion: 0.97

Prompt: Recorded Ratio (-BP/+BP), DF-10000 of IL-18 variant T34N, S36Y, D40H, N41T, K53G, S55Y (ligand) YFGKLESKLSVIRNLNDQVLFIDQGNRPLFEDMNDYDMRHTAPRTIFIISMYGDYQPRGMAVTISVKSEKISTLSSENKIISFKEMNPPDNIKDTKSDIIFFQRSVPGHDNKMQFESSSYEGYFLASEKERDLFKLILKKEDELGDRSIMFTVQNED , please.
Completion: 1.08

Prompt: Recorded Ratio (-BP/+BP), DF-10000 of IL-18 variant K53H, S55R (ligand) YFGKLESKLSVIRNLNDQVLFIDQGNRPLFEDMTDSDMRDNAPRTIFIISMYHDRQPRGMAVTISVKSEKISTLSSENKIISFKEMNPPDNIKDTKSDIIFFQRSVPGHDNKMQFESSSYEGYFLASEKERDLFKLILKKEDELGDRSIMFTVQNED , please.
Completion: 0.97

Prompt: Recorded Ratio (-BP/+BP), DF-10000 of IL-18 variant K53H, S55G (ligand) YFGKLESKLSVIRNLNDQVLFIDQGNRPLFEDMTDSDMRDNAPRTIFIISMYHDGQPRGMAVTISVKSEKISTLSSENKIISFKEMNPPDNIKDTKSDIIFFQRSVPGHDNKMQFESSSYEGYFLASEKERDLFKLILKKEDELGDRSIMFTVQNED , please.
Completion: 1.08

Prompt: Recorded Ratio (-BP/+BP), DF-10000 of IL-18 variant S36E, D37E, D40V, N41S, K53Y, S55V, H109Y (ligand) YFGKLESKLSVIRNLNDQVLFIDQGNRPLFEDMTDEEMRVSAPRTIFIISMYYDVQPRGMAVTISVKSEKISTLSSENKIISFKEMNPPDNIKDTKSDIIFFQRSVPGYDNKMQFESSSYEGYFLASEKERDLFKLILKKEDELGDRSIMFTVQNED , please.
Completion: 1.03

Prompt: Recorded Ratio (-BP/+BP), DF-10000 of IL-18 variant K53H, S55I (ligand) YFGKLESKLSVIRNLNDQVLFIDQGNRPLFEDMTDSDMRDNAPRTIFIISMYHDIQPRGMAVTISVKSEKISTLSSENKIISFKEMNPPDNIKDTKSDIIFFQRSVPGHDNKMQFESSSYEGYFLASEKERDLFKLILKKEDELGDRSIMFTVQNED , please.
Completion: 0.92
